TARGET DESC: PI3Kα (Homo sapiens, UniProt P42336)
Construct: Full length p110 subunits of PI3K α, β and δ, N-terminally labeled with polyHis tag; polyHis (N); made in house; host or cells: Sf9 insect cells (baculovirus)
Sequence (P42336 whole entry): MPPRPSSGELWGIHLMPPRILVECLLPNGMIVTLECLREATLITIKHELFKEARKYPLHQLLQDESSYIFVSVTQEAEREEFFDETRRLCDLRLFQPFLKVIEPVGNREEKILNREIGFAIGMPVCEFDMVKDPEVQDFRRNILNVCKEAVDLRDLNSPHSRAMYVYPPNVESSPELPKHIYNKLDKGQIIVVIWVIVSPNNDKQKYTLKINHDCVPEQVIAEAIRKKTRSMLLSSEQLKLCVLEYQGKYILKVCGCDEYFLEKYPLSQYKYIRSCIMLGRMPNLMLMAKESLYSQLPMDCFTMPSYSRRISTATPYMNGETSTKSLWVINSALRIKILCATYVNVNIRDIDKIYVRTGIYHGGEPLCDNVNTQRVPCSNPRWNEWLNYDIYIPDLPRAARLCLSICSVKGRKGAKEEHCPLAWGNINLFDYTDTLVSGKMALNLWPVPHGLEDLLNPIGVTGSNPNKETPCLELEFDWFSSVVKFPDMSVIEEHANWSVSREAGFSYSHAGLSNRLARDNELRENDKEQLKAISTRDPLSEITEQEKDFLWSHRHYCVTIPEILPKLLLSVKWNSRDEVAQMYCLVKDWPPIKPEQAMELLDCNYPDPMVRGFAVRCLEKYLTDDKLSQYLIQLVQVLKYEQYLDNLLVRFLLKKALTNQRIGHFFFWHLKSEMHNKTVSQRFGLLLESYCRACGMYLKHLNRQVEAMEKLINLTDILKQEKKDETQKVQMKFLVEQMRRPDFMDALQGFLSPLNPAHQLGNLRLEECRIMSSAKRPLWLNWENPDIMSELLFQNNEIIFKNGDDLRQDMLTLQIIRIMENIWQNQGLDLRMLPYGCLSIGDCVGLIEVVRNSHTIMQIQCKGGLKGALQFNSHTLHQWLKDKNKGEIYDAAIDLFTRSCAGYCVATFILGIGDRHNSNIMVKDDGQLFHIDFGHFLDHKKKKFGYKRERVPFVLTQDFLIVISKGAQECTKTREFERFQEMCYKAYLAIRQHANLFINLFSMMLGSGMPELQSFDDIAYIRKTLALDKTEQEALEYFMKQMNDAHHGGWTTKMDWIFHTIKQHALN
Sequence (P27986 whole entry partner): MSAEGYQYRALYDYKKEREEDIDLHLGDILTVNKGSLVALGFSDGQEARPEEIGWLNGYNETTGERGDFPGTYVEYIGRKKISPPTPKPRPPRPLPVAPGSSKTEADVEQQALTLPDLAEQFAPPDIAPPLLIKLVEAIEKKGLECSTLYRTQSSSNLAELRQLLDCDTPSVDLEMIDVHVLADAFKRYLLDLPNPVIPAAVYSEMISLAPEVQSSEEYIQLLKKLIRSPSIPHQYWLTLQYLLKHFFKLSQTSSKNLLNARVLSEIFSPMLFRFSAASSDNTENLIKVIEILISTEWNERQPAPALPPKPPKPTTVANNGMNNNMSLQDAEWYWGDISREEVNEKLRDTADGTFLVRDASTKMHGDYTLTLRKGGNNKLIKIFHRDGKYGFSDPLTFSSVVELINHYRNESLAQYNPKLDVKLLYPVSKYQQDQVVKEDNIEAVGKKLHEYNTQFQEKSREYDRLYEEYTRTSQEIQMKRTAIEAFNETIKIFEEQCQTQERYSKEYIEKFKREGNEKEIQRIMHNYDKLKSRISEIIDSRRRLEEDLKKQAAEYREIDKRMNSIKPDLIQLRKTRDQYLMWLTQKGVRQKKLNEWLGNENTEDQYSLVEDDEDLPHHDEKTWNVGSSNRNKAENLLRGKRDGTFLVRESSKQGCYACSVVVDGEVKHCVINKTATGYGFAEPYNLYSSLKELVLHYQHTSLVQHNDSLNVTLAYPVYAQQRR
EXPERIMENT: In vitro PI3K AlphaScreen assay, PI3Kα
Type: biochemical
EXPERIMENTAL SETUP: PI(4,5)P2 substrate, 20 minutes at room temperature, read-out: P13Kalpha IC50 um
Listed here: items and their measured IC50.
MEASUREMENT NAME: IC50 (µM)

# ITEM SMILES, MEASUREMENT NAME, RECORDED MEASUREMENT
records = [
    ("Cc1nc(N)nc(-c2c(Nc3cnn(C(=O)Oc4ccccc4)c3)nc3ccccn23)n1", "IC50", 0.83),
    ("Cc1nc(N)cc(-c2c(Nc3ccn(C(=O)Nc4cc(C(F)(F)F)ccc4Cl)n3)nc3cccnn23)n1", "IC50", 15.8),
    ("COc1ccc(Nc2nc3ccc(N4CCN(C(C)=O)CC4)cn3c2-c2nc(C)nc(N)n2)cn1", "IC50", 0.09),
    ("COCCNC(=O)n1ccc(Nc2nc3cccnn3c2-c2cc(N)nc(C)n2)n1", "IC50", 33.4),
    ("Cc1nc(NC(=O)C2CC2)cc(-c2c(Nc3cc[nH]n3)nc3cccnn23)n1", "IC50", 1),
    ("Cc1nc(NC(=O)N2CCN(C)CC2)cc(-c2c(Nc3cc[nH]n3)nc3cccnn23)n1", "IC50", 15.3),
    ("COc1ccc(Nc2cc(C)nn2-c2cc(N)nc(C)n2)cn1", "IC50", 0.79),
    ("Cc1nc(NC(=O)CC#N)cc(-c2c(Nc3ccn(C)n3)nc3ccccn23)n1", "IC50", 5.34),
]

###

Observed IC50, system mTOR (Homo sapiens, UniProt P42345).
MEASUREMENT NAME: IC50 (µM)

# ITEM SMILES, MEASUREMENT NAME, RECORDED MEASUREMENT
data = [
    ("COCCOc1ccn2c(-c3nc(C)nc(N)n3)c(Nc3cc[nH]n3)nc2c1", "IC50", 0.04),
    ("Cc1nc(N)nc(-c2c(Nc3cc[nH]n3)nc3ccc(-c4ccc5c(c4)CCNC5=O)cn23)n1", "IC50", 0.002),
    ("CSc1cccc(-c2ccc3nc(Nc4cc[nH]n4)c(-c4nc(C)nc(N)n4)n3c2)c1", "IC50", 0.05),
    ("CNc1cc(-c2c(Nc3cc[nH]n3)nc3ccc(N4CCOCC4)nn23)nc(C)n1", "IC50", 0.04),
    ("Cc1nc(Nc2cc(OCC(F)(F)F)cnn2)cc(-c2c(Nc3cc[nH]n3)nc3cccnn23)n1", "IC50", 0.01),
    ("Cc1nc(NC(=O)N(C)C)cc(-c2c(Nc3cc[nH]n3)nc3cccnn23)n1", "IC50", 1.42),
    ("Cc1nc(N)nc(-c2c(Nc3cc[nH]n3)nc3ccc(-c4ccc(S(C)(=O)=O)cc4)cn23)n1", "IC50", 0.08),
    ("Cc1nc(NC(=O)C2CC2)cc(-c2c(Nc3cc[nH]n3)nc3cccnn23)n1", "IC50", 0.29),
    ("Cc1nc(N)cc(-c2c(Nc3ccn(C)n3)nc3ccc(-c4cccc(S(C)(=O)=O)c4)cn23)n1", "IC50", 0.34),
    ("COc1ccc(Nc2cc(-c3c(Nc4cc[nH]n4)nc4cccnn34)nc(C)n2)cc1", "IC50", 2.84),
]

###

TARGET DESC: mTOR (Homo sapiens)
pIC50: −log10 of the molar value.
Label Not fulfilled if pIC50 falls below 7; label Fulfilled in every other case.

# COMPOUND, ASSIGNED LABEL
rows = [
    ("COCCOc1ccc2nc(Nc3cc[nH]n3)c(-c3cc(N)nc(C)n3)n2n1", "Fulfilled"),
    ("Cc1nc(N)nc(-c2c(Nc3cc[nH]n3)nc3ccc(-c4ccc(F)cc4C)cn23)n1", "Fulfilled"),
    ("Cc1nc(N)nc(-c2c(Nc3cc[nH]n3)nc3ccc(-c4cccc(NC(=O)C5CC5)c4)cn23)n1", "Fulfilled"),
    ("Cc1nc(NC(=O)N2CCN(C)CC2)cc(-c2c(Nc3cc[nH]n3)nc3cccnn23)n1", "Not fulfilled"),
    ("CCNC(=O)Nc1ccc(Nc2nc3ccccn3c2-c2cc(N)nc(C)n2)cc1", "Fulfilled"),
    ("CNc1nc(C)nc(-c2c(Nc3cc[nH]n3)nc3ccccn23)n1", "Fulfilled"),
    ("Cc1nc(N)cc(-c2c(Nc3ccn(C(=O)NCc4ccccc4)n3)nc3ccccn23)n1", "Not fulfilled"),
    ("Cc1nc(N)cc(-c2c(Nc3ccnn3C(=O)N3CCC3)nc3cccnn23)n1", "Not fulfilled"),
    ("CC(=O)n1ccc(Nc2nc3cccnn3c2-c2cc(N)nc(C)n2)n1", "Fulfilled"),
    ("Cc1nc(N)nc(-c2c(Nc3ccn[nH]3)nc3ccc(CCC(O)CO)cn23)n1 (stereo not drawn)", "Not fulfilled"),
    ("Cc1nc(N)nc(-c2c(Nc3ccn(C)n3)nc3ccc(-c4ccc(S(C)(=O)=O)cc4)cn23)n1", "Not fulfilled"),
    ("CC(=O)Nc1cc(-c2c(Nc3ccn(C)n3)nc3c(F)cccn23)nc(C)n1", "Fulfilled"),
    ("Cc1nc(N)cc(-c2c(Nc3ccn(S(C)(=O)=O)n3)nc3ccccn23)n1", "Not fulfilled"),
    ("Cc1nc(N)cc(-c2c(Nc3ccn(C(=O)Nc4ccccc4C(F)(F)F)n3)nc3cccnn23)n1", "Fulfilled"),
    ("CNS(=O)(=O)c1ccc(-c2ccc3nc(Nc4cc[nH]n4)c(-c4nc(C)nc(N)n4)n3c2)cc1", "Not fulfilled"),
    ("COc1ccc(Nc2cc(C)nn2-c2cc(N)nc(C)n2)cn1", "Not fulfilled"),
]

###

System: phosphorylation of Akt at Serine 473 in U87 MG cells
EXPERIMENT: pAkt AlphaScreen (U87 cell)
Type: cell-based
EXPERIMENTAL SETUP: Homo sapiens, U-87 MG, 2 h; pAkt at Serine 473, U87 MG cells, two hours with compound
IC50 overview
MEASUREMENT NAME: IC50 (nM)

# COMPOUND, MEASUREMENT NAME, RECORDED MEASUREMENT
measured = [
    ("Cc1nc(N)nc(-c2c(Nc3cc[nH]n3)nc3ccc(C4=CCN(C(=O)OC(C)(C)C)CC4)cn23)n1 [Cpd 97]", "IC50", 30),
    ("CC(=O)n1ccc(Nc2nc3cccnn3c2-c2cc(N)nc(C)n2)n1 [Cpd 67]", "IC50", 10),
    ("COc1ccc(Nc2cc(-c3c(Nc4cc[nH]n4)nc4cccnn34)nc(C)n2)cc1 [Cpd 33]", "IC50", 290),
    ("COCCNC(=O)n1ccc(Nc2nc3cccnn3c2-c2cc(N)nc(C)n2)n1 [Cpd 264]", "IC50", 3150),
    ("CNS(=O)(=O)c1ccc(-c2ccc3nc(Nc4cc[nH]n4)c(-c4nc(C)nc(N)n4)n3c2)cc1 [Cpd 351]", "IC50", 30),
    ("Cc1nc(NC(=O)Cc2cccc(F)c2)cc(-c2c(Nc3ccn(C)n3)nc3ccccn23)n1 [Cpd 128]", "IC50", 3160),
    ("CCOC(=O)c1cc(Nc2cc[nH]n2)n(-c2cc(N)nc(C)n2)n1 [Cpd 15]", "IC50", 110),
    ("Cc1nc(N)nc(-c2c(Nc3cc[nH]n3)nc3ccc(Nc4ccncc4)cn23)n1 [Cpd 166]", "IC50", 450),
]

###

System: phosphorylation of Akt at Serine 473 in U87 MG cells
EXPERIMENT: pAkt AlphaScreen (U87 cell)
Assay type: cell-based
EXPERIMENTAL SETUP: Homo sapiens, U-87 MG, 2 h; pAkt at Serine 473, U87 MG cells, two hours with compound
The entries below are paired with their reported log10(IC50).
MEASUREMENT NAME: log10(IC50) (log10 of the value in nM)

# COMPOUND, RECORDED MEASUREMENT
rows = [
    ("CNc1cc(-c2c(Nc3cc[nH]n3)nc3ccc(N4CCOCC4)nn23)nc(C)n1 [Cpd 72]", 0.48),
    ("CC(=O)Nc1cccc(-c2ccc3nc(Nc4cc[nH]n4)c(-c4nc(C)nc(N)n4)n3c2)c1 [Cpd 114]", 1.48),
    ("COc1ccc(-c2ccc3nc(Nc4ccn[nH]4)c(-c4nc(C)nc(N)n4)n3c2)cc1CO [Cpd 286]", 1.00),
    ("Cc1nc(Nc2ccccc2F)cc(-c2c(Nc3cc[nH]n3)nc3cccnn23)n1 [Cpd 31]", 2.90),
    ("CCNC(=O)Nc1ccc(Nc2nc3ccccn3c2-c2cc(N)nc(C)n2)cc1 [Cpd 40]", 1.78),
]
